# credit: ChEMBL document CHEMBL5532679

Assay: in vitro
Details: NMRI, mouse, microsomes
microsomal CLint at 1 µM values for the compounds below.

Clc1ccc2c(c1)CC(NC1COC1)Cc1nnc([C@H]3CC[C@H](Oc4ccccn4)CC3)n1-2 (stereo partly specified): 14 µL/min/mg
CC(C)NCC1Cc2cc(Cl)ccc2-n2c(nnc2[C@H]2CC[C@H](Oc3ccccn3)CC2)C1 (stereo partly specified): 8 µL/min/mg
FC1(F)CCC(NC2Cc3cc(Cl)ccc3-n3c(nnc3[C@H]3CC[C@H](Oc4ccccn4)CC3)C2)CC1 (stereo partly specified): 37 µL/min/mg
CCN[C@@H]1Cc2cc(Cl)ccc2-n2c(nnc2[C@H]2CC[C@H](Oc3ccccn3)CC2)C1: 16 µL/min/mg
O=C1Cc2cc(Cl)ccc2-n2c(nnc2[C@H]2CC[C@H](Oc3ccccn3)CC2)C1: 36 µL/min/mg

Prompt: Data request, read-out microsomal CLint at 1 µM, for CN(C)CC1Cc2cc(Cl)ccc2-n2c(nnc2[C@H]2CC[C@H](Oc3ccccn3)CC2)C1 (stereo partly specified)
Response: 39 µL/min/mg

Prompt: Data request, read-out microsomal CLint at 1 µM, for Clc1cnc2n1CCCc1nnc([C@H]3CC[C@H](Oc4ccccn4)CC3)n1-2
Response: 15 µL/min/mg

Prompt: Data request, read-out microsomal CLint at 1 µM, for Clc1ccc2c(c1)CC(CNC1CCOCC1)Cc1nnc([C@H]3CC[C@H](Oc4ccccn4)CC3)n1-2 (stereo partly specified)
Response: 6 µL/min/mg

Prompt: Data request, read-out microsomal CLint at 1 µM, for FC(F)(F)[C@H]1CC[C@H](c2nnc3n2-c2ccc(Cl)cc2CC2(C3)OCCO2)CC1
Response: 34 µL/min/mg

Prompt: Data request, read-out microsomal CLint at 1 µM, for CO[C@]1(C)CC[C@@H](c2nnc3n2-c2ccc(Cl)cc2CC2(C3)OCCO2)CC1
Response: 16 µL/min/mg

----------
Target: UniProt Q12809
// classify: if (IC50 < 10 µM) Condition met else Condition not met

Please review the entries below; each comes with its answer.
OC[C@@H]1Cc2cc(Cl)ccc2-n2c(nnc2[C@H]2CC[C@H](Oc3ccccn3)CC2)C1: Condition not met
FC[C@@H]1Cc2cc(Cl)ccc2-n2c(nnc2[C@H]2CC[C@H](Oc3ccccn3)CC2)C1: Condition not met
OC[C@H]1Cc2cc(Cl)ccc2-n2c(nnc2[C@H]2CC[C@H](Oc3ccccn3)CC2)C1: Condition not met

Moving on to another compound below.
Prompt: Consider CC(C)NC1Cc2cc(Cl)ccc2-n2c(nnc2[C@H]2CC[C@H](Oc3ccccn3)CC2)C1 (mixture of isomers) . Does its IC50 lie strictly below 10 µM?
Response: Condition met

----------
Measured Ki (Vasopressin V1a receptor (Homo sapiens, UniProt P37288))
Provide the reading as a plain figure in nM.

Some solved cases for reference:
Clc1ccc2c(c1)CC(CNC1CCOCC1)Cc1nnc([C@H]3CC[C@H](Oc4ccccn4)CC3)n1-2 (stereo partly specified): 2.3
NC1CCc2cc(Cl)ccc2-n2c1nnc2[C@H]1CC[C@H](Oc2ccccn2)CC1 (stereo partly specified): 8
CC(C)NC1Cc2ccccc2-n2c(nnc2[C@H]2CC[C@H](Oc3ccccn3)CC2)C1 (stereo partly specified): 5.6
CC(C)NCC1Cc2cc(Cl)ccc2-n2c(nnc2[C@H]2CC[C@H](Oc3ccccn3)CC2)C1 (stereo partly specified): 2.8
CO[C@H]1Cc2cc(Cl)ccc2-n2c(nnc2[C@H]2CC[C@H](Oc3ccccn3)CC2)C1: 2

Now for another entry.
Prompt: Hello, I am looking for reported Ki with Vasopressin V1a receptor (Homo sapiens, UniProt P37288) for CN1CCN(CC2Cc3cc(Cl)ccc3-n3c(nnc3[C@H]3CC[C@H](Oc4ccccn4)CC3)C2)CC1 (stereo partly specified) . Could you help?
Response: 0.8

----------
Assay: Apparent permeability of compound across apical to basal side in vinblastine treated human Caco-2 cells at 1 to 10 uM incubated for 15 to 60 mins by HPLC analysis
Observation type: Papp A→B at 10 µM (×10⁻⁶ cm/s)
Provide the reading as a plain figure in ×10⁻⁶ cm/s.

Some solved cases for reference:
Clc1ccc2c(c1)CC(NC1COC1)Cc1nnc([C@H]3CC[C@H](Oc4ccccn4)CC3)n1-2 (some centres not stated): 24
N[C@H]1Cc2cc(Cl)ccc2-n2c(nnc2[C@H]2CC[C@H](Oc3ccccn3)CC2)C1: 2.6
CCN[C@@H]1Cc2cc(Cl)ccc2-n2c(nnc2[C@H]2CC[C@H](Oc3ccccn3)CC2)C1: 24
O[C@H]1Cc2cc(Cl)ccc2-n2c(nnc2[C@H]2CC[C@H](Oc3ccccn3)CC2)C1: 20
OC1Cc2cc(Cl)ccc2-n2c(nnc2[C@H]2CC[C@H](Oc3ccccn3)CC2)C1 (mixture of isomers): 20
Clc1ccc2c(c1)CC1(Cc3nnc([C@H]4CC[C@H](Oc5ccccn5)CC4)n3-2)OCCCO1: 7

Prompt: Data request, read-out Papp A→B at 10 µM, for Clc1ccc2c(c1)CC1(Cc3nnc([C@H]4CC[C@H](N5CCOCC5)CC4)n3-2)OCCO1
Response: 4.5

----------
pIC50: −log10 of the molar value.
Measured pIC50 (Voltage-gated inwardly rectifying potassium channel KCNH2 (Homo sapiens, UniProt Q12809))

Some solved cases for reference:
FC(F)(F)[C@H]1CC[C@H](c2nnc3n2-c2ccc(Cl)cc2CC2(C3)OCCO2)CC1: < 4.52
CO[C@]1(C)CC[C@@H](c2nnc3n2-c2ccc(Cl)cc2CC2(C3)OCCO2)CC1: < 4.52

Now for another entry.
Prompt: Hello, I am looking for reported pIC50 with Voltage-gated inwardly rectifying potassium channel KCNH2 (Homo sapiens, UniProt Q12809) for O=C1Cc2cc(Cl)ccc2-n2c(nnc2[C@H]2CC[C@H](Oc3ccccn3)CC2)C1 . Could you help?
Response: < 4.52

----------
Assay: in vitro
Settings: NMRI, mouse, microsomes
Observation type: log10(microsomal CLint at 1 µM) (log10 of the value in µL/min/mg)
# log10 transformed; quantity=microsomal CLint at 1 µM; unit=µL/min/mg

CN(C)C1Cc2cc(Cl)ccc2-n2c(nnc2[C@H]2CC[C@H](Oc3ccccn3)CC2)C1 (stereo partly specified): 1.57
O[C@@H]1Cc2cc(Cl)ccc2-n2c(nnc2[C@H]2CC[C@H](Oc3ccccn3)CC2)C1: 0.70
Clc1ccc2c(c1)CC1(Cc3nnc([C@H]4CC[C@H](Oc5ccccn5)CC4)n3-2)OCCCO1: 1.43
O[C@H]1Cc2cc(Cl)ccc2-n2c(nnc2[C@H]2CC[C@H](Oc3ccccn3)CC2)C1: 0.85

Prompt: Data request, read-out log10(microsomal CLint at 1 µM), for CN1CCN(CC2Cc3cc(Cl)ccc3-n3c(nnc3[C@H]3CC[C@H](Oc4ccccn4)CC3)C2)CC1 (stereo partly specified)
Response: 0.78

Prompt: Data request, read-out log10(microsomal CLint at 1 µM), for Clc1ccc2c(c1)CC(CN1CCOCC1)Cc1nnc([C@H]3CC[C@H](Oc4ccccn4)CC3)n1-2 (stereo partly specified)
Response: 2.00

----------
Target: Voltage-gated inwardly rectifying potassium channel KCNH2 (Homo sapiens)
Sequence (Q12809 whole entry): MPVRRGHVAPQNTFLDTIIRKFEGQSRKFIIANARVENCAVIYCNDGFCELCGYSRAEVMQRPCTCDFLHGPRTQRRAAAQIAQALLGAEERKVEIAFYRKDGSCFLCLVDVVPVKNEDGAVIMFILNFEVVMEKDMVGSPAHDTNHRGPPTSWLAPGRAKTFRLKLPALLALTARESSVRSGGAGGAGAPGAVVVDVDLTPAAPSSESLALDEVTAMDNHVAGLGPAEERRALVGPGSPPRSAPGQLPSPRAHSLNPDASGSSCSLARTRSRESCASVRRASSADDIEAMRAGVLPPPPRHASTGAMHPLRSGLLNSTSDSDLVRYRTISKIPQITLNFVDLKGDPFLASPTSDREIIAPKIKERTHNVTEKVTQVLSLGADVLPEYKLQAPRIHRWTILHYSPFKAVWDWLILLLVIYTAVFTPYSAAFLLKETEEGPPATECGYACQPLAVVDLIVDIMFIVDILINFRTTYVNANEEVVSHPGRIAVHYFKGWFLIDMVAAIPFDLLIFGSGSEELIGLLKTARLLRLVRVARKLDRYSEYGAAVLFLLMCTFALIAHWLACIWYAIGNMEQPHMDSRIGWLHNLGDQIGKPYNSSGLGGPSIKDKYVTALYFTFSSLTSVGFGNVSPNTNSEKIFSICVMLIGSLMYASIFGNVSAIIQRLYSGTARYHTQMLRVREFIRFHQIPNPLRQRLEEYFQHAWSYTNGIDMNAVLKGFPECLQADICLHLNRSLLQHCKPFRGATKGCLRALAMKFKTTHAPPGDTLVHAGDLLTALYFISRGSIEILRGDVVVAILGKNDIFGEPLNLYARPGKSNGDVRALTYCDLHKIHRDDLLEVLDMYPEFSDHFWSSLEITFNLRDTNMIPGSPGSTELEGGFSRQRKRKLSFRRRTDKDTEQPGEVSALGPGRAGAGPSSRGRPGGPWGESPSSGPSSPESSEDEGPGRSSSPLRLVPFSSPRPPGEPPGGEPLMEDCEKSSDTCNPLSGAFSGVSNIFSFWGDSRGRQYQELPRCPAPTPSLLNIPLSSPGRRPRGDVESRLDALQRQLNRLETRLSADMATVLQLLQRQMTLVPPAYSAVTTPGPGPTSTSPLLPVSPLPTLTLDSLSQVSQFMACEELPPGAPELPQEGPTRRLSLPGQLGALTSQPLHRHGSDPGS
pIC50 values for the compounds below.
On this scale, pIC50 is minus log10 of a concentration expressed in M (mol/L).

Some solved cases for reference:
CO[C@H]1Cc2cc(Cl)ccc2-n2c(nnc2[C@H]2CC[C@H](Oc3ccccn3)CC2)C1: 4.99
CC(C)N[C@@H]1Cc2cc(Cl)ccc2-n2c(nnc2[C@H]2CC[C@H](Oc3ccccn3)CC2)C1: 5.40
CN1Cc2cc(Cl)ccc2-n2c(nnc2[C@H]2CC[C@H](Oc3ccccn3)CC2)C1: 4.68

Now for another entry.
Prompt: Hello, I am looking for reported pIC50 with Voltage-gated inwardly rectifying potassium channel KCNH2 (Homo sapiens) for FC[C@H]1Cc2cc(Cl)ccc2-n2c(nnc2[C@H]2CC[C@H](Oc3ccccn3)CC2)C1 . Could you help?
Response: 4.89

----------
Test: Apparent permeability of compound across apical to basal side in vinblastine treated human Caco-2 cells at 1 to 10 uM incubated for 15 to 60 mins by HPLC analysis
Papp A→B at 10 µM values for the compounds below.
Provide the reading as a plain figure in nm/s.

Some solved cases for reference:
O[C@@H]1Cc2cc(Cl)ccc2-n2c(nnc2[C@H]2CC[C@H](Oc3ccccn3)CC2)C1: 230
CN1CCN(CC2Cc3cc(Cl)ccc3-n3c(nnc3[C@H]3CC[C@H](Oc4ccccn4)CC3)C2)CC1 (stereo not given in full): 86
CC(C)(O)C(=O)N[C@@H]1Cc2cc(Cl)ccc2-n2c(nnc2[C@H]2CC[C@H](Oc3ccccn3)CC2)C1: 18
O=C(N[C@@H]1Cc2cc(Cl)ccc2-n2c(nnc2[C@H]2CC[C@H](Oc3ccccn3)CC2)C1)C(F)(F)F: 110
CO[C@@H]1Cc2cc(Cl)ccc2-n2c(nnc2[C@H]2CC[C@H](Oc3ccccn3)CC2)C1: 380
O=C(N[C@@H]1Cc2cc(Cl)ccc2-n2c(nnc2[C@H]2CC[C@H](Oc3ccccn3)CC2)C1)C1CC1: 43
CO[C@H]1Cc2cc(Cl)ccc2-n2c(nnc2[C@H]2CC[C@H](Oc3ccccn3)CC2)C1: 400
Clc1ccc2c(c1)CC(CNC1CCOCC1)Cc1nnc([C@H]3CC[C@H](Oc4ccccn4)CC3)n1-2 (stereo not given in full): 81

Prompt: Data request, read-out Papp A→B at 10 µM, for CO[C@]1(C)CC[C@@H](c2nnc3n2-c2ccc(Cl)cc2CC2(C3)OCCO2)CC1
Response: 420

Prompt: Data request, read-out Papp A→B at 10 µM, for FC(F)(F)[C@H]1CC[C@H](c2nnc3n2-c2ccc(Cl)cc2CC2(C3)OCCO2)CC1
Response: 390
